- target_system: UniProt P35968
- Sequence (P35968 20-1356): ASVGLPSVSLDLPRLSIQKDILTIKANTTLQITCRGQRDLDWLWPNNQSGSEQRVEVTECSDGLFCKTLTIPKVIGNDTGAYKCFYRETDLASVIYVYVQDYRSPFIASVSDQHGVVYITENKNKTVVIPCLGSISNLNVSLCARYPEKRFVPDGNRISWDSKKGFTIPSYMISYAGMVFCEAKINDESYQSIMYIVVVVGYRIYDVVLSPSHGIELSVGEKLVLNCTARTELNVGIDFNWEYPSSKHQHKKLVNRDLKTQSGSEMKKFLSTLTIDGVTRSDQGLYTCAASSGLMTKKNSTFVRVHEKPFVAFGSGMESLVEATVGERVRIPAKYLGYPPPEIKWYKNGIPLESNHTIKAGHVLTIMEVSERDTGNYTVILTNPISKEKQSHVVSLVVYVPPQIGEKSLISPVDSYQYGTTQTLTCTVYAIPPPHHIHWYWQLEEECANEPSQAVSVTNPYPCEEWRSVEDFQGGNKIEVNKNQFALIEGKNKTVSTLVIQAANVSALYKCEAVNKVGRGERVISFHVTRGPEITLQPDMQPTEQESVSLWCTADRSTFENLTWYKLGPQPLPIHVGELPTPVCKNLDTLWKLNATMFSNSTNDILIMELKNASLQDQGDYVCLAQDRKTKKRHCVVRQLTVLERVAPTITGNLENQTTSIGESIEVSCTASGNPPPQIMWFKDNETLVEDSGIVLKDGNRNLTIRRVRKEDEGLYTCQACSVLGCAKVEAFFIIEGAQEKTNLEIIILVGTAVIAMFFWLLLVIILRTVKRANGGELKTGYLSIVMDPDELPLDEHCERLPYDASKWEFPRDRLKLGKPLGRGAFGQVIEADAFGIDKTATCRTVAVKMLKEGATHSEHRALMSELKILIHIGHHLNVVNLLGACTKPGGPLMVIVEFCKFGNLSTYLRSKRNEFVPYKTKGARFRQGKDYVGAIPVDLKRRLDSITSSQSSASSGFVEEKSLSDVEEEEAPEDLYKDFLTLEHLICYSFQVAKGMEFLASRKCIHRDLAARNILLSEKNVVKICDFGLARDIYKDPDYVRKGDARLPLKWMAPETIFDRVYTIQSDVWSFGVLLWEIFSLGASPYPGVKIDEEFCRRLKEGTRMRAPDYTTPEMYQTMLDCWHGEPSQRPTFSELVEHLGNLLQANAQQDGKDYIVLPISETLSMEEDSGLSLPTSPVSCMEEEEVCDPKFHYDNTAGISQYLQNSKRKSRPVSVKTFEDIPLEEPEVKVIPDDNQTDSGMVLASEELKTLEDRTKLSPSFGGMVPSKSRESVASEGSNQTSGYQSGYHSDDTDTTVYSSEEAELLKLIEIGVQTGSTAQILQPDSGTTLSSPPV
- test_description: VEGFR-2 relative quantification by flow cytometry in MCF-7
- Type: cell-based
- Set-up: Both membrane and total PD-L1 and VEGFR-2 were relatively determined using DMSO-treated cells as a negative control; endogenous in cells; host or cells: MCF-7
- condition_notes: MCF-7, 20 µM, 24 h, control = 100
experimental_readout: % VEGFR-2 Memb. (%)
Kindly answer with a numeric value in %, unit omitted.

// recorded % VEGFR-2 Memb. for COc1ccc(COc2cccc(NC(=O)Nc3ccc(Br)cc3)c2)cc1 [Compound 8] : 82

The molecule identified as Cc1c(COc2ccc(CN3CCCCC3C(=O)O)cc2Br)cccc1-c1ccccc1 (centres unmarked) [BMS-8, reference compound] registered its % VEGFR-2 Memb. at 107

***
Quick note, % VEGFR-2 Memb. for COc1ccc(COc2cccc(NC(=O)Nc3ccc(F)cc3)c2)cc1 [Compound 2] landed at 91

Entry COc1ccc(COc2cccc(NC(=O)Oc3ccccc3)c2)cc1 [Compound 14] ; % VEGFR-2 Memb. = 89

Noted for COc1ccc(COc2cccc(NC(=O)Nc3ccc(OC)cc3)c2)cc1 [Compound 11] : its % VEGFR-2 Memb. reads 81
